// provenance: PubChem BioAssay (NCI)

- System: UO-31 renal
- assay-explanation: NCI tumour cell line growth inhibition, 48 h
assay-endpoint: TGI (µM)
Express your answer in µM, writing the number without its unit.

smiles	TGI [µM]
O=C(O)/C=C(\c1nc2ccc([N+](=O)[O-])cc2[nH]1)c1cc(Cl)ccc1O	9.01

Supply TGI value. Item: `O=c1oc2ccccc2cc1-c1csc(Nc2ccc(F)cc2)n1`
6.42

###

- System: A549 NSCLC
- assay-explanation: NCI tumour cell line growth inhibition, 48 h; in the data active = GI50 below about 0.43 µM; inactive = the rest
Thanks in advance; please answer with one of these: active, inactive

Reference set, count: 4
compound	class
COc1cc2ncn(-c3cc(OCc4cccs4)c(C(N)=O)s3)c2cc1OC	inactive
CS(=O)(=O)c1ccc(-n2nc(C(F)(F)F)cc2OC2CCCC2)cc1	inactive
NC(=O)NS(=O)(=O)c1ccc(N2N=C(C(F)(F)F)CC2c2cc(C(F)(F)F)cc(C(F)(F)F)c2)cc1 (stereo not given)	inactive
Nc1nc(N(Cc2ccccc2)c2ccccc2)c2cn[nH]c2n1	inactive

Give the logged outcome of this assay for the following compound: `COc1ccc2c(c1)CCCN2c1c2ccccc2nc2ccccc12`
active
